compounds and their reported GI50
Test system: CAKI-1 renal
Experiment: NCI tumour cell line growth inhibition, 48 h
MEASURED PARAMETER: GI50

>>> meas_value("COc1cc(-c2ccc3cc(OC)c(OC)c(OC)c3c2)cc(OC)c1OC")
"> 100000 nM"
>>> meas_value("Cc1ccc(-n2c3nc(=O)[nH]c(=O)c-3cc3cc([N+](=O)[O-])ccc32)cc1")
"10400 nM"
>>> meas_value("COc1cccc(-c2nc(-c3ccc(NC(=O)OC(C)C)cc3)[nH]c2-c2ccnc(Br)c2)c1")
"2490 nM"
>>> meas_value("O=C(Oc1ccc(Cl)cc1)c1ccccc1Nc1ccnc(C(F)(F)F)c1")
"2320 nM"
>>> meas_value("CCCCCCCCCCn1cc[n+](C)c1")
"1790 nM"
>>> meas_value("O=C(Nc1ccc(Oc2ccc(Nc3nc4ccccc4s3)cc2)cc1)Nc1ccc(Cl)c(C(F)(F)F)c1")
"2050 nM"
>>> meas_value("CCN(C(=O)N1CCN(c2cc3c(cc2F)c(=O)c(C(=O)O)cn3C2CC2)CC1)c1nc(-c2ccc(Cl)cc2)cs1")
"2170 nM"
>>> meas_value("Nc1n[nH]c2cccc(C#Cc3cccc(C(=O)Nc4ccc(CN5CCOCC5)c(C(F)(F)F)c4)c3)c12")
"3200 nM"
>>> meas_value("COc1ccc(C2[C@@H](c3ccccc3)C(=O)N2c2cc(OC)c(OC)c(OC)c2)cc1F (some centres undefined)")
"33.2 nM"

* * *

Tested on: HCT-15 colon
Test: NCI tumour cell line growth inhibition, 48 h
MEASURED PARAMETER: TGI

>>> meas_value("O=C(c1ccccn1)C1(N2CCCCC2)CCCCC1")
"> 100 µM"
>>> meas_value("N#CC(NCc1cccc(CNC(C#N)c2ccccc2)c1)c1ccccc1 (stereo not drawn)")
"66.1 µM"
>>> meas_value("COC[C@H]1Cn2cc(-c3nc(Nc4ccnn4C)ncc3C)nc2C(=O)N1Cc1ccc(F)c(F)c1")
"> 100 µM"
>>> meas_value("C=CC1(CC/C(=C\\[N+](=O)[O-])c2ccc(OC)c(OC)c2)OCC(C)(C)CO1")
"38.6 µM"
>>> meas_value("CC1CN(C)c2ccccc2N=C1NN (stereo not drawn)")
"> 100 µM"
>>> meas_value("O=[N+]([O-])c1ccc2[nH]nc(OCc3ccccc3Cl)c2c1")
"> 100 µM"
>>> meas_value("CC(C)(C)c1cc2c(O)c3cccc4c(=O)c5cccc6c5-c(c34)c2c(c1)c6=O")
"> 100 µM"
>>> meas_value("C=C1CCN2CC[C@@H](OC(=O)/C(C)=C\\C)[C@@H]12")
"> 100 µM"
>>> meas_value("Cc1ccc(N(Cc2ccccc2)Cc2ccccc2)cc1")
"> 100 µM"
>>> meas_value("COC(=O)CC(c1ccccc1)C1(c2ccccc2)SCCS1 (stereo not drawn)")
"> 290 µM"
>>> meas_value("N#CC(C#N)=C/C=C(\\Sc1nc2ccccc2s1)c1ccc(Cl)cc1")
"> 44.2 µM"
>>> meas_value("CCCCCCCCCCCCC(O)c1ccc(C#CCCCCCCCCCO)o1 (stereo not drawn)")
"36.8 µM"
>>> meas_value("CCCCCCCCCCn1cc[n+](C)c1")
"> 100 µM"
>>> meas_value("COc1ccc(CN2C(=O)/C(=C\\c3cc(OC)c(OC)c(OC)c3)c3ccccc32)cc1")
"3.86 µM"
>>> meas_value("CC1=C(Cl)C=CP(=O)(Oc2ccccc2)C1 (stereo not drawn)")
"> 100 µM"
>>> meas_value("Cc1ccc(/C=C/C(=O)c2cccc3ccccc23)cc1")
"35.3 µM"
>>> meas_value("O=C(CCCSc1nc(-c2ccccc2)cc(-c2ccccc2)n1)NO")
"11.8 µM"
>>> meas_value("Cc1ccccc1OC(C)C(=O)NN1C(=O)CSC1c1ccccc1 (stereo not drawn)")
"> 100 µM"
>>> meas_value("Cc1cccc(Cn2c3c(c4cc(O)ccc42)C(=O)c2ccccc2C3=O)c1")
"> 100 µM"
>>> meas_value("O=[N+]([O-])c1ccc(Cl)cc1N/N=C/c1ccnc2ccccc12")
"> 100 µM"
>>> meas_value("CC(=O)CC(OC(C)=O)C1=CCC2C(CC1C)OC(=O)C2C (stereo not drawn)")
"> 100 µM"
>>> meas_value("CC(C)=CCC(O)C1=CC(=O)c2c(O)ccc(O)c2C1=O (stereo not drawn)")
"0.526 µM"
>>> meas_value("CC(=O)OCCOCNC(=S)N/N=C(\\C)c1cnccn1")
"> 100 µM"

Sourced from PubChem BioAssay (NCI)
